Reference for the values: patent EP1561465A2

Tested on: Staphylococcus aureus
method: MIC by agar dilution (NCCLS), 411 isolates Buenos Aires 1998-99
Assay type: cell-based
setup_conditions: S. aureus, Methicillin resistant (n = 14)
assay_readout: Resistance (%)
# value in %; strip the unit string

GET /values?readout=Resistance (%)&system=Staphylococcus aureus&item= CO/N=C1\CN(c2nc3c(cc2F)c(=O)c(C(=O)O)cn3C2CC2)CC1CN (racemic)
0

GET /values?readout=Resistance (%)&system=Staphylococcus aureus&item= CC1COc2c(N3CCN(C)CC3)c(F)cc3c(=O)c(C(=O)O)cn1c23 (stereo not shown)
100

GET /values?readout=Resistance (%)&system=Staphylococcus aureus&item= `C[C@H]1COc2c(N3CCN(C)CC3)c(F)cc3c(=O)c(C(=O)O)cn1c23`
100

GET /values?readout=Resistance (%)&system=Staphylococcus aureus&item= `N[C@@H]1[C@H]2CN(c3nc4c(cc3F)c(=O)c(C(=O)O)cn4-c3ccc(F)cc3F)C[C@@H]12`
7
